Tested on: E. coli TESEC Mtb Alr
Experiment: growth (OD600 after 10 h); higher = more growth (less inhibition)
Settings: arabinose 100000 nM; compound 0.1 mM; raw OD600 reference: median of DMSO wells 0.201, cell-free background 0.041
Where a name gives a salt, the structure may show the parent alone.
readout_kind: growth
No unit in the answer, only the number.

Example entries begin here.
| compound | growth |
| --- | --- |
| CCCC(=O)Nc1ncnc2c1ncn2[C@@H]1O[C@@H]2COP(=O)(O)O[C@H]2[C@H]1OC(=O)CCC [Bucladesine sodium salt] | 0.206 |
| CCCCNc1ccc(C(=O)OCCN(C)C)cc1 | 0.186 |
| NC(=O)c1ccc[n+]([C@@H]2O[C@H](COP(=O)([O-])OP(=O)(O)OC[C@H]3O[C@@H](n4cnc5c(N)ncnc54)[C@H](O)[C@@H]3O)[C@@H](O)[C@H]2O)c1 [Nadide] | 0.238 |
| CCN1C(=O)NC(c2ccccc2)C1=O (stereo unspecified) | 0.191 |
| CC(=O)Oc1cccc2c1C(=O)c1c(OC(C)=O)cc(C(=O)O)cc1C2=O | 0.0638 |

The compound CN(C)CCOC(C)(c1ccccc1)c1ccccn1 (stereo unspecified) [Doxylamine succinate] , when measured on E. coli TESEC Mtb Alr, yielded growth of 0.19

The compound CC(C)(C)NC[C@H](O)COc1ccccc1C1CCCC1 [Penbutolol sulfate] , when measured on E. coli TESEC Mtb Alr, yielded growth of 0.162

The compound C[n+]1ccccc1/C=N/O [Pralidoxime chloride] , when measured on E. coli TESEC Mtb Alr, yielded growth of 0.202

The compound CO[C@@]1(NC(=O)C(C(=O)O)c2ccc(O)cc2)C(=O)N2C(C(=O)O)=C(CSc3nnnn3C)CO[C@@H]21 (stereo partly specified) [Moxalactam disodium salt] , when measured on E. coli TESEC Mtb Alr, yielded growth of 0.039

The compound CC(=O)O[C@]1(C(C)=O)CC[C@H]2[C@@H]3C=C(C)C4=CC(=O)CC[C@]4(C)[C@H]3CC[C@@]21C [Megestrol acetate] , when measured on E. coli TESEC Mtb Alr, yielded growth of 0.16

The compound CC1(C)S[C@@H]2[C@H](NC(=O)[C@H](C(=O)O)c3ccsc3)C(=O)N2[C@H]1C(=O)O [Ticarcillin sodium] , when measured on E. coli TESEC Mtb Alr, yielded growth of 0.2

The compound NCCCC(O)(P(=O)(O)O)P(=O)(O)O [Alendronate sodium] , when measured on E. coli TESEC Mtb Alr, yielded growth of 0.24

The compound CC1COc2c(N3CCN(C)CC3)c(F)cc3c(=O)c(C(=O)O)cn1c23 (stereo unspecified) , when measured on E. coli TESEC Mtb Alr, yielded growth of 0.0435

The compound CN(C(=O)C(Cl)Cl)c1ccc(OC(=O)c2ccco2)cc1 [Diloxanide furoate] , when measured on E. coli TESEC Mtb Alr, yielded growth of 0.169

The compound CN(CCOc1ccc(CC2SC(=O)NC2=O)cc1)c1ccccn1 (stereo unspecified) [Rosiglitazone Hydrochloride] , when measured on E. coli TESEC Mtb Alr, yielded growth of 0.177

The compound `O=c1oc2ccccc2c(O)c1Cc1c(O)c2ccccc2oc1=O` , when measured on E. coli TESEC Mtb Alr, yielded growth of 0.149

The compound CC(C)[C@H]1CC[C@H](C(=O)N[C@H](Cc2ccccc2)C(=O)O)CC1 [Nateglinide] , when measured on E. coli TESEC Mtb Alr, yielded growth of 0.169

* * *

Tested on: E. coli TESEC Mtb Alr
Test: growth (OD600 after 10 h); higher = more growth (less inhibition)
Conditions: arabinose 100 nM; compound 0.1 mM; raw OD600 reference: median of DMSO wells 0.413, cell-free background 0.052
Structures can show the parent of a compound that is named as a salt.
readout_kind: growth
No unit in the answer, only the number.

Example entries begin here.
| compound | target_system | growth |
| --- | --- | --- |
| CC(=O)Oc1ccccc1C(=O)Nc1ncc([N+](=O)[O-])s1 [Nitazoxanide] | E. coli TESEC Mtb Alr | 0.157 |
| CN1CCCN=C1/C=C/c1cccc(O)c1 [Oxantel pamoate] | E. coli TESEC Mtb Alr | 0.405 |
| CC(C)(C)NC(=O)[C@H]1CC[C@H]2[C@@H]3CC[C@H]4NC(=O)C=C[C@]4(C)[C@H]3CC[C@]12C [Finasteride] | E. coli TESEC Mtb Alr | 0.366 |
| Nc1ccn([C@@H]2O[C@H](CO)[C@@H](O)[C@@H]2O)c(=O)n1 [Cytarabine] | E. coli TESEC Mtb Alr | 0.406 |
| CC(=O)OCC(=O)[C@@]1(O)CC[C@H]2[C@@H]3CCC4=CC(=O)CC[C@]4(C)[C@@]3(F)[C@@H](O)C[C@@]21C [Fludrocortisone acetate] | E. coli TESEC Mtb Alr | 0.401 |
| CCCCOc1ccc(C(=O)CCN2CCCCC2)cc1 [Dyclonine hydrochloride] | E. coli TESEC Mtb Alr | 0.408 |
| CCCCCCNC(=O)n1cc(F)c(=O)[nH]c1=O [Carmofur] | E. coli TESEC Mtb Alr | 0.349 |
| CC(=O)N[C@@H](CC(C)C)C(=O)O [N-Acetyl-L-leucine] | E. coli TESEC Mtb Alr | 0.41 |

Sure, the documented growth for N#Cc1cc(NC(=O)C(=O)O)c(Cl)c(NC(=O)C(=O)O)c1 [Lodoxamide] is 0.404

Sure, the documented growth for CNC(=C[N+](=O)[O-])NCCSCc1ccc(CN(C)C)o1 [Ranitidine hydrochloride] is 0.408

Sure, the documented growth for N#Cc1ccc(C(c2ccc(C#N)cc2)n2cncn2)cc1 [Letrozole] is 0.394

Sure, the documented growth for COC(c1ccccc1)(c1ccccc1)[C@H](Oc1nc(C)cc(C)n1)C(=O)O [Ambrisentan] is 0.41

* * *

Measured growth by item
Test system: E. coli TESEC Mtb DapB
Test: growth (OD600 after 10 h); higher = more growth (less inhibition)
Settings: arabinose induction (level): Low; compound 0.1 mM; raw OD600 reference: median of DMSO wells 0.227, cell-free background 0.041
Structures can show the parent of a compound that is named as a salt.
No unit in the answer, only the number.

| molecule | target_system | quantitative_result |
| --- | --- | --- |
| CC(=O)Nc1ccc(O)cc1 [Acetaminophen] | E. coli TESEC Mtb DapB | 0.251 |
| COc1ccccc1N1CCN(CCCCNC(=O)c2ccc3ccccc3c2)CC1 | E. coli TESEC Mtb DapB | 0.2 |
| CCN1CCCC1CNC(=O)c1cc(S(=O)(=O)CC)c(N)cc1OC (centres undefined) [Amisulpride] | E. coli TESEC Mtb DapB | 0.239 |

Now turn to the next molecule.
Sure, the documented growth for CCCNC(C)(C)COC(=O)c1ccccc1 [Meprylcaine hydrochloride] is 0.221

* * *

Test system: E. coli TESEC Mtb Alr
Assay: growth (OD600 after 10 h); higher = more growth (less inhibition)
Settings: arabinose 10000000 nM; compound 0.1 mM; raw OD600 reference: median of DMSO wells […], cell-free background 0.052
Counter-ions that a name gives are not always drawn.
Measured growth by item
No unit in the answer, only the number.

Example entries begin here.
| compound | growth |
| --- | --- |
| CC(=O)/N=c1/sc(S(N)(=O)=O)nn1C [Methazolamide] | 0.348 |
| CC(C)[N+](C)(CCOC(=O)C1c2ccccc2Oc2ccccc21)C(C)C [Propantheline bromide] | 0.328 |
| Oc1ncnc2[nH]ncc12 | 0.34 |
| Nc1ncn(C2OC(CO)C(O)C2O)c(=O)n1 (stereo not given) | 0.066 |
| Cc1ccc(C)c(OCCCC(C)(C)C(=O)O)c1 | 0.261 |

Sure, the documented growth for `CCn1cc(C(=O)O)c(=O)c2cc(F)c(N3CCNCC3)cc21` is 0.0512

Sure, the documented growth for `N[C@@H](Cc1ccc(O)c(O)c1)C(=O)O` is 0.354

Sure, the documented growth for CCOC(=O)[C@H](CCc1ccccc1)N[C@H]1CCc2ccccc2N(CC(=O)O)C1=O [Benazepril HCl] is 0.331

Sure, the documented growth for NCC[C@H](O)C(=O)N[C@@H]1C[C@H](N)[C@@H](O[C@H]2O[C@H](CN)[C@@H](O)[C@H](O)[C@H]2O)[C@H](O)[C@H]1O[C@H]1O[C@H](CO)[C@@H](O)[C@H](N)[C@H]1O [Amikacin hydrate] is 0.0532

Sure, the documented growth for COCC1=C(C(=O)OC(C)OC(=O)OC(C)C)N2C(=O)[C@@H](NC(=O)/C(=N\OC)c3csc(N)n3)[C@H]2SC1 (stereo not given in full) is 0.278

Data origin: the supplement of paper PMC9262897
